Reported composite Z-score values follow for various compounds
Experiment: probe aXIP binding to arrayed compounds – biochemical, NeuroSMM set, 635/667 nm fluorescence, primary screen (AID 1119);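 also: probe is the protein aXip251-270 applied at 1 µg/mL to compound-printed slides; binding of probe to printed compounds measured as 667 nm fluorescence plus signal to noise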
Conditions: small-molecule microarray, higher = more signal, called active from +8 up or from −8 down
RECORDED_ENDPOINT: composite Z-score

compound=O=C(NCCN1CCOCC1)[C@@H]1c2ccccc2C(=O)N(C2Cc3ccccc3C2)[C@H]1c1ccc(CO)cc1 test_value=-0.27
compound="CC1CC/C=C\\[C@H]2OC34C=CCN(Cc5ccccc5)C(=O)[C@H]3N(C(CO)C(C)C)C(=O)[C@@H]4C2C(=O)O1 (some centres undefined)" test_value=-0.263
compound=COC(=O)[C@@]1(Cc2ccc(OC)cc2)[C@H]2c3cc(C(=O)N4CCCC4)n(CCO)c3C[C@H]2CN1C(=O)c1ccccc1 test_value=-0.423
compound=CC(C)C[C@@H]1NC(=O)[C@@H]2C[C@H](C(=O)NCCCCCCN)[C@H](c3cccc(OCCO)c3)N2C1=O test_value=0.799
